- Test system: TRPC4 beta (transient receptor potential cation channel C4), mouse
- Protocol Notes: TRPC4 cation channel opening, retest – cell-based, Fluo4 calcium, HEK293 TRPC4beta/mu-opioid, duplicates, 10 µM, confirmation (AID 2426)
- Run Conditions: Fluo4 calcium fluorescence, at 10 µM
Active and inactive are the calls of the source.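 Rule for the calls: active = fluorescence ratio normalized to control raised more than 50% in primary screen plus both repeat runs; inactive = the rest.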
Possible outcomes: T = active, F = inactive

>  <Compound>
Cc1ccc(NC(=O)C2CCC(CNC(=O)[C@@H]3Cc4ccccc4CN3)CC2)cc1 (some centres not stated)

>  <Cat>
F

$$$$
>  <Compound>
O=C(O)CCCN1C(=O)/C(=C\c2ccc(-c3nc4ccccc4s3)o2)SC1=S

>  <Cat>
F

$$$$
>  <Compound>
Cc1cc(S(=O)(=O)N2CCC(N3CCCCC3)CC2)ccc1-n1cnnn1

>  <Cat>
F

$$$$
>  <Compound>
O=C(Nc1ccc(F)cc1)Nc1cc(S(=O)(=O)N2CCOCC2)ccc1N1CCCC1

>  <Cat>
F

$$$$
>  <Compound>
COc1ccc(C(CNC(=O)c2cc(C)on2)N(C)C)cc1 (configuration not stated)

>  <Cat>
T

$$$$
>  <Compound>
Cc1oc(-c2ccccc2Cl)nc1CS(=O)CC(=O)NCCCN1CC(C)CC(C)C1 (configuration not stated)

>  <Cat>
T

$$$$
>  <Compound>
CC(C)c1nc(CNC(=O)CC2C(=O)NCCN2Cc2ccc(F)cc2Cl)cs1 (configuration not stated)

>  <Cat>
F

$$$$
>  <Compound>
CN(C)S(=O)(=O)c1cccc(COC(=O)c2ccc(Cl)cc2O)c1

>  <Cat>
F

$$$$
>  <Compound>
COCCn1c(SCc2ccccc2F)nc2ccccc2c1=O

>  <Cat>
F

$$$$
>  <Compound>
CCCCn1c2ccccc2c2nnc(SCCN3CCCCC3)nc21

>  <Cat>
F

$$$$
>  <Compound>
Cc1cc(Cl)ccc1OC(C)C(=O)Nc1ccccc1N1CCOCC1 (configuration not stated)

>  <Cat>
F

$$$$
>  <Compound>
Cc1cccc(CN2CCCC(C(=O)Nc3ccccc3Oc3cccnc3)C2)c1 (configuration not stated)

>  <Cat>
F

$$$$
>  <Compound>
O=[N+]([O-])c1cc(C(F)(F)F)ccc1NC1CCN(Cc2ccccc2)C1 (configuration not stated)

>  <Cat>
F

$$$$
>  <Compound>
NC(=O)C(c1cccc(Cl)c1)c1ncc(C(F)(F)F)cc1Cl (configuration not stated)

>  <Cat>
F

$$$$
>  <Compound>
CCc1cc2c(SCC(=O)N(C)C3CCS(=O)(=O)C3)ncnc2s1 (configuration not stated)

>  <Cat>
F

$$$$
>  <Compound>
CCOC(=O)CSc1nc2ccccc2c(=O)n1C1CCCC1

>  <Cat>
F

$$$$
>  <Compound>
O=C1CCSc2ccc(Cl)cc2N1Cc1ccc(Cl)cc1

>  <Cat>
F

$$$$
>  <Compound>
NC(=O)c1nsc(C(=O)N(Cc2ccco2)C(C(=O)NCC2CCCO2)c2ccc(F)cc2)c1N (configuration not stated)

>  <Cat>
F

$$$$
>  <Compound>
Cc1ccc(C2(CCNC(C)c3cccs3)CCOC(C(C)C)C2)cc1 (configuration not stated)

>  <Cat>
F

$$$$
>  <Compound>
COc1ccc(C(CNC(=O)c2cccc(NS(=O)(=O)c3ccc(Br)cc3)c2)N(C)C)cc1 (configuration not stated)

>  <Cat>
T

$$$$
>  <Compound>
CCOCCCn1c(=S)[nH]c2cc(C(=O)NCCCN(CC)CC)ccc2c1=O

>  <Cat>
F

$$$$
>  <Compound>
CN(C)CCCN(C(=O)c1ccc(S(=O)(=O)N2CCCCCC2)cc1)c1nc2c(F)cc(F)cc2s1

>  <Cat>
T

$$$$

Ref: PubChem BioAssay
